Assay: High-throughput drug toxicity screening in the BPDCN cell line Gen2.2 (AID 1224824);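 also: cells exposed to compounds for 48 h before reading; 100% = DMSO and 0% = bortezomib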
Settings: Gen2.2 BPDCN cells; at 45.8 µM (top of the series) unless noted
cell viability, % of control (lower = more cytotoxic) listing for selected molecules.
Measured Quantity: cell viability, % of control (lower = more cytotoxic) (%)

[[record]]
molecule = "CC1(C)CC(O)CC(C)(C)N1[O]"
unit_of_measurement = "%"
measured_number = 152

[[record]]
molecule = "Oc1cc2c(cc1O)C1c3ccc(O)c(O)c3OCC1(O)C2 (stereo not given)"
unit_of_measurement = "%"
measured_number = 167

[[record]]
molecule = "O=C(C[C@@H]1CC=CCCC(=O)O[C@H](c2ccccc2)CNC1=O)NCc1ccc(Cl)cc1"
unit_of_measurement = "%"
measured_number = 17

[[record]]
molecule = "CN[C@H]1[C@@H](O)[C@@H]2O[C@@H]3O[C@H](C)CC(=O)[C@]3(O)O[C@@H]2[C@@H](NC)[C@H]1O"
unit_of_measurement = "%"
measured_number = 9.59

[[record]]
molecule = "C[C@@H](Cc1cc2c(c(C(N)=O)c1)N(CCCO)CC2)NCCOc1ccccc1OCC(F)(F)F"
unit_of_measurement = "%"
measured_number = 183


Cited source for all entries: PubChem BioAssay (NCATS)
